Reference source for all entries: PubChem BioAssay (NCI)

- Test system: MDA-N
- Assay Explanation: NCI tumour cell line growth inhibition, 48 h
Would you mind telling me the reported TGI of each entry?

Input `N#Cc1c(=O)n(-c2ccccc2)c(O)c2c(N)n[nH]c12` . Output TGI: > 100 µM

Input `c1ccc(-c2nc3ccccc3n3c(CN4CCCCC4)nnc23)cc1` . Output TGI: > 100 µM

Input CC1CN1C(=O)NCCCCCCNC(=O)N1CC1C (stereo unspecified) . Output TGI: > 100 µM

Input COC(=O)/C=C(/C=C1/C(C#N)=C(N)N(c2ccc(Cl)cc2)C1(C)/C(=C/C(=O)OC)C(=O)OC)C(=O)OC (stereo unspecified) . Output TGI: > 100 µM

Input `O=C(O)c1nn(-c2ccccc2-c2n[nH]c(=O)[nH]c2=O)c(=O)[nH]c1=O` . Output TGI: > 100 µM

Input COC1(C)CP(=O)(OC(C)C)CC(C)=C1Cl (stereo unspecified) . Output TGI: 47.7 µM
